molecular target: human DLL3 endogenously expressed on SHP77 and NCI-H82 cells (human) (UniProt Q9NYJ7); assay: FACS SHP77 cells, 4 nM
Sequence (Q9NYJ7 27-618): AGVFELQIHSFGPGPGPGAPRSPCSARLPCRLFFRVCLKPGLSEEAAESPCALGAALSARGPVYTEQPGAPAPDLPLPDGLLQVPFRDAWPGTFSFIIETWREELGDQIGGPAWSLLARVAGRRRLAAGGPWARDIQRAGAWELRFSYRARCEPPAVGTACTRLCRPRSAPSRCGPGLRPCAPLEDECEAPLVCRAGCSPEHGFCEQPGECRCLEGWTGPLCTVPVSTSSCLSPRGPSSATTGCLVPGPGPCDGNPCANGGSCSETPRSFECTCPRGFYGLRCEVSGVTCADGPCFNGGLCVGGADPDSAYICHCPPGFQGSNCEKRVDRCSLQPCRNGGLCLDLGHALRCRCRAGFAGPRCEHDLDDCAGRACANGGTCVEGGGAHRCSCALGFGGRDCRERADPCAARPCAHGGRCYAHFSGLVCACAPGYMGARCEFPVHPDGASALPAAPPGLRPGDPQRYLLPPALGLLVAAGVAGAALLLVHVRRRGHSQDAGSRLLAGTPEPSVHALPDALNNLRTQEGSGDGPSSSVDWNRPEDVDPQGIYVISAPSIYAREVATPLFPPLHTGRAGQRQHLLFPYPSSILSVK
READOUT_NAME: MFI (MFI)
The figure you give is taken to be in MFI; do not add the unit.

[ask] Item under review: mab010 scFv-hFc (Fc fusion, not shown: small tags and cut ends; a dimerising Fc or GST) scFv (part 1 of 2): DIQMTQSPASLSVSVGETVTITCRASENINSNLAWYQQKQGKSPQLLVYAATNLADGVPSRFSGSGSGTQFSLKISGLQSEDFGSYYCQHFWGLPWTFGGGTKLEIR scFv (part 2 of 2): QVQLQQSGAELARPGASMKLSCKASGYTFTSYGISWVKQITGQGLEWIGEIFPRSGNTYDNENFRGKATLTADKSSSTAYLEVRSLTSEDSAVYFCARTTVFAPYYFDYWGQGTTLTVSS . Reported MFI?
[reply] 707

[ask] Item under review: mab003 scFv-hFc (Fc fusion, part only; not given: VL-VH linker and human IgG1 Fc, not shown: another chain or arm of the molecule; a dimerising Fc or GST; small tags and cut ends) scFv (part 1 of 2): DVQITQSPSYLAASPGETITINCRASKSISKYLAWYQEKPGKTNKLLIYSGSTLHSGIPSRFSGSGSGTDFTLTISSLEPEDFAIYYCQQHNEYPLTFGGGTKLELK scFv (part 2 of 2): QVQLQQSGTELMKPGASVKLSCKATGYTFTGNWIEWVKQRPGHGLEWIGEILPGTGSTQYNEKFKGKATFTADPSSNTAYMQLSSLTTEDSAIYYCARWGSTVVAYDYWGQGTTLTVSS . Reported MFI?
[reply] 789

[ask] Item under review: mab016 scFv-hFc (Fc fusion, not shown: small tags and cut ends; a dimerising Fc or GST) scFv (part 1 of 2): DIVMTQSQKFMSTTIGDRVSITCKASQNVGTTVAWYQQKPGQSPNLLLYSTSNRFTGVPDRFTGSGSGTDFTLTITNMQSEDLADYFCQQYNNYPLTFGGGTKLEIK scFv (part 2 of 2): EVNLEESGGGLVQPGGSMKLSCVASGFAFSNFWMQWVRQSPEKGLEWVAQIRLKSDNYAAHYAESVKGRFTISRDDSKSSVYLQLNNLRAEDTGTYYCTQGNWVGFAYWGQGTLVTVSA . Reported MFI?
[reply] 546
